Collected Blackgrass plant response rating values appear next to each entry.
# Tested on: blackgrass
# method: Test B pre/postemergence blackgrass
# Type: in vivo, Alopecurus myosuroides
# condition-parameters: Rate 250 g/ha, Postemergence; scale 0 to 10, 0 is no effect, 10 is complete control
Give your answer as a number; write no unit.

                                   compound  measured_target  experimental_result
0  CCOC(=O)CC(C(=O)OCC)n1c(=O)on(C(=O)N(c2ccc(Cl)cc2)C(C)C)c1=O (centres unmarked) [Compound 681]       blackgrass                    0

Field: Blackgrass plant response rating (blackgrass). Entry: CC(C)N(C(=O)n1oc(=O)n(CC2=NOCCO2)c1=O)c1ccc(F)cc1F [Compound 758]
6

Field: Blackgrass plant response rating (blackgrass). Entry: COc1ccc(N(C(=O)n2oc(=O)n(C(C)C)c2=O)C(C)C)cc1 [Compound 780]
4

Field: Blackgrass plant response rating (blackgrass). Entry: CC(C)N(C(=O)n1oc(=O)n(CC(F)F)c1=O)c1ccc(Cl)cc1 [Compound 745]
8

Field: Blackgrass plant response rating (blackgrass). Entry: CC(C)N(C(=O)n1oc(=O)n(CCCCCl)c1=O)c1ccc(F)cc1 [Compound 712]
5

###

# Test system: corn
# method: Test B pre/postemergence corn
# Assay type: in vivo, Zea mays
# condition-parameters: Postemergence, Rate 1000 g/ha; scale 0 to 10 (0 no effect, 10 complete control)
# Description: […] At the same time, these crop and weed species were also treated with postemergence applications of test chemicals formulated in the same manner. […] Treated plants and controls were maintained in a greenhouse for twelve to sixteen days, after which all species were compared to controls and visually evaluated. […]
property-measured: Corn plant response rating

What value of Corn plant response rating has been recorded for this entry: CC(C)N(C(=O)n1oc(=O)n(C2CCCC(C(F)(F)F)C2)c1=O)c1ccc(F)cc1 (stereo not shown)
0

What value of Corn plant response rating has been recorded for this entry: CCOC(=O)C(C)N(C(=O)n1oc(=O)n(C(C)C)c1=O)c1ccc(F)cc1 (stereo not shown)
0

What value of Corn plant response rating has been recorded for this entry: "CCOP(=O)(Cn1c(=O)on(C(=O)N(c2ccc(F)cc2F)C(C)C)c1=O)OCC"
4

What value of Corn plant response rating has been recorded for this entry: "CC(C)N(C(=O)n1oc(=O)n(N(C)c2ccccc2)c1=O)c1ccc(F)cc1"
0

###

# Test system: sugar beet
# method: Test B pre/postemergence sugar beet
# Assay type: in vivo, Beta vulgaris
# condition-parameters: Postemergence, Rate 125 g/ha; scale of 0 to 10 where 0 is no effect and 10 is complete control
property-measured: Sugarbeets plant response rating
Give your answer as a number; write no unit.

                                 smiles_str  experimental_result
0  CC(C)N(C(=O)n1oc(=O)n(Cc2ccccc2)c1=O)c1ccccc1                    2
1  CC(C)N(C(=O)n1oc(=O)n(Cc2nnc(Cl)s2)c1=O)c1ccc(F)cc1F                    0
2  Cc1ccc(N(C(=O)n2oc(=O)n(C(C)C)c2=O)C(C)C)cc1                    0
3  CC(C)N(C(=O)n1oc(=O)n([C@@H](C)c2ccccc2)c1=O)c1ccccc1                    0
4  CC(C)N(C(=O)n1oc(=O)n(CCCCCl)c1=O)c1ccc(F)cc1                    3

What value of Sugarbeets plant response rating has been recorded for this entry: "C=C(Cn1c(=O)on(C(=O)N(c2ccccc2)C(C)C)c1=O)C(C)C"
0

What value of Sugarbeets plant response rating has been recorded for this entry: "CC(C)N(C(=O)n1oc(=O)n(CC(F)F)c1=O)c1ccc(Cl)cc1"
2

What value of Sugarbeets plant response rating has been recorded for this entry: "CC(C)N(C(=O)n1oc(=O)n(N(C)c2ccccc2)c1=O)c1ccc(F)cc1"
0

###

Collected Plant response rating, Cocklebur values appear next to each entry.
# Tested on: cocklebur
# method: Test B pre/postemergence cocklebur
# Type: in vivo, Xanthium strumarium
# condition-parameters: Postemergence, Rate 62 g/ha; scale 0 to 10, 0 is no effect, 10 is complete control

A selection of reference data follows.
In [3]: df
Out[3]:
                                 smiles_str  measured_target  experimental_result
0  CC(C)N(C(=O)n1oc(=O)n(Cc2nnc(Cl)s2)c1=O)c1ccc(F)cc1F        cocklebur                    0
1  CC(C)N(C(=O)n1oc(=O)n(CC2=NOCCO2)c1=O)c1ccc(F)cc1        cocklebur                    0
2  CC(C)N(C(=O)n1oc(=O)n(CF)c1=O)c1ccc(F)cc1        cocklebur                    0
3  CCOC(Cn1c(=O)on(C(=O)N(c2ccc(Cl)cc2)C(C)C)c1=O)OCC        cocklebur                    0

As a next step, examine the compound that follows.
Field: Plant response rating, Cocklebur (cocklebur). Entry: "C#CCCn1c(=O)on(C(=O)N(c2ccc(F)cc2)C(C)C)c1=O"
2

###

# System: bedstraw
# method: Test B pre/postemergence bedstraw
# Format: in vivo, Galium aparine
# condition-parameters: Rate 250 g/ha, Postemergence; scale 0 to 10, 0 is no effect, 10 is complete control
property-measured: Plant response rating, Bedstraw
Give your answer as a number; write no unit.

Field: Plant response rating, Bedstraw (bedstraw). Entry: COc1ccccc1Cn1c(=O)on(C(=O)N(c2ccc(F)cc2)C(C)C)c1=O [Compound 143]
6

Field: Plant response rating, Bedstraw (bedstraw). Entry: CC(C)N(C(=O)n1oc(=O)n(C(C)c2ccccc2)c1=O)c1ccc(Cl)cc1 (stereo not shown) [Compound 133]
7

Field: Plant response rating, Bedstraw (bedstraw). Entry: CN(C(=O)n1oc(=O)n(Cc2ccccc2)c1=O)c1ccccc1 [Compound 153]
0

Field: Plant response rating, Bedstraw (bedstraw). Entry: C=CCn1c(=O)on(C(=O)N(c2ccc(F)cc2)C(C)C)c1=O [Compound 146]
7

###

# System: bedstraw
# method: Test B pre/postemergence bedstraw
# Assay type: in vivo, Galium aparine
# condition-parameters: Postemergence, Rate 125 g/ha; scale of 0 to 10 where 0 is no effect and 10 is complete control
property-measured: Bedstraw plant response rating

A selection of reference data follows.
                                   compound               property_measured  experimental_result
0  COC1CCC(Cn2c(=O)on(C(=O)N(c3ccc(F)cc3)C(C)C)c2=O)=NO1 (stereo not shown)  Bedstraw plant response rating                    0
1  Cc1ccc(N(C(=O)n2oc(=O)n(C(C)C)c2=O)C(C)C)cc1  Bedstraw plant response rating                    0
2  CC(C)N(C(=O)n1oc(=O)n(CCN(C)C(=O)c2ccccc2)c1=O)c1ccccc1  Bedstraw plant response rating                    0
3  CC(C)N(C(=O)n1oc(=O)n(C(C)c2ccccc2)c1=O)c1ccc(Cl)cc1 (stereo not shown)  Bedstraw plant response rating                    4
4  CN(C(=O)n1oc(=O)n(Cc2ccccc2)c1=O)c1ccccc1  Bedstraw plant response rating                    0
5  CC(C)N(C(=O)n1oc(=O)[nH]c1=O)c1ccc(F)cc1  Bedstraw plant response rating                    0

As a next step, examine the compound that follows.
What value of Bedstraw plant response rating has been recorded for this entry: "CC(C)N(C(=O)n1oc(=O)n(CCCC#N)c1=O)c1ccc(F)cc1F"
1

###

# System: morningglory
# method: Test B pre/postemergence morningglory
# Type: in vivo, Ipomoea hederacea
# condition-parameters: Rate 500 g/ha, Postemergence; scale 0 to 10, 0 is no effect, 10 is complete control
# Protocol: […] At the same time, these crop and weed species were also treated with postemergence applications of test chemicals formulated in the same manner. […] Treated plants and controls were maintained in a greenhouse for twelve to sixteen days, after which all species were compared to controls and visually evaluated. […]
Collected Morningglory plant response rating values appear next to each entry.
Give your answer as a number; write no unit.

>>> print(df.to_string())
                                 smiles_str  experimental_result
0  CC(C)N(C(=O)n1oc(=O)n(Cc2nnc(Cl)s2)c1=O)c1ccc(Cl)cc1                    1
1  CC(C)N(C(=O)n1oc(=O)n(CCCC#N)c1=O)c1ccc(F)cc1F                    4

Field: Morningglory plant response rating (morningglory). Entry: "CCOP(=O)(Cn1c(=O)on(C(=O)N(c2ccc(F)cc2F)C(C)C)c1=O)OCC"
5

Field: Morningglory plant response rating (morningglory). Entry: "CC(C)N(C(=O)n1oc(=O)n(CCCCCl)c1=O)c1ccc(F)cc1"
10

Source: patent US6737383B1
